Hello, the source for this data is patent US20160228506A1, in case you need it.

- ASSAY_PROCEDURE: Thermostability, temperature of aggregation (ProteoStat Thermal Shift)
- Assay type: physicochemical
- Set-up: key: temperature in °C
- RUN_CONDITIONS: pH 7.1
For each entry below, report its Tagg value.
Write the number on its own, no unit after it.

Sample SEQID-00485: nutritive polypeptide naturally produced in Chickpea, recombinantly expressed in E. coli (protein, listed as Cicer arietinum) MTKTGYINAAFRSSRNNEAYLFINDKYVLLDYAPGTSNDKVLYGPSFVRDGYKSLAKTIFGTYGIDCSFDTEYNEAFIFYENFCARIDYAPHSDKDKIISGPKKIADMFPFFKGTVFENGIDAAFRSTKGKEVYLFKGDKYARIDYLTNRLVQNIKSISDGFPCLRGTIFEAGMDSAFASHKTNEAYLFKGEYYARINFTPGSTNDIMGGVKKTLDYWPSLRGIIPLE — what was its Tagg?
36

Could you share which Tagg value was measured for SEQID-00502: protein of the 168 nutritive polypeptide library (protein, Glycine max, protein of the 168 nutritive polypeptide library) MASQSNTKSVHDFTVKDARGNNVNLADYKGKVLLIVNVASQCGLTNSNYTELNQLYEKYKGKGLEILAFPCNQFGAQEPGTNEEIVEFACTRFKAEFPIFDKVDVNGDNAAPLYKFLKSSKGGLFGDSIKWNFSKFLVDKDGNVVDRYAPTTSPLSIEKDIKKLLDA ?
95

Tell me the measured Tagg of SEQID-00511: protein of the 168 nutritive polypeptide library (protein, Arthrospira platensis C1, protein of the 168 nutritive polypeptide library) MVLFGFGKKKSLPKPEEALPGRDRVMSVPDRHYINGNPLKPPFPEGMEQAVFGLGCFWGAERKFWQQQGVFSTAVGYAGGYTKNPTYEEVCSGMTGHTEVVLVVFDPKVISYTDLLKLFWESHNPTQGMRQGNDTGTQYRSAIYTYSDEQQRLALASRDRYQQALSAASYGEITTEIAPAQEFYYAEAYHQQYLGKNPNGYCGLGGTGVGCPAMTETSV , please.
42

Recorded Tagg of SEQID-00622: protein of the 168 nutritive polypeptide library (protein, listed as Oryza sativa, source: /note="subsp. japonica", protein of the 168 nutritive polypeptide library) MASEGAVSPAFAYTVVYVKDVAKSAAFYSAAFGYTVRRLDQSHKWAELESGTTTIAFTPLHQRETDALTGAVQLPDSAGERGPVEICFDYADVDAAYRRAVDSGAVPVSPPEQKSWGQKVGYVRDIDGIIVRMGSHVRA , please.
95
